Experiment: Cytotoxicity against human WI38 cells assessed as reduction in cell viability after 48 hrs by MTT assay
Format: toxicity, cell-based, WI-38
Labelling field: enter criterion met if recorded IC50 at 48 h is less than 40 µM. Enter criterion not met if it equals or exceeds that cut-off.

The examples below pair each entry with its known result.
Prompt line: For c1cc([Se][Se]c2ccc(NCc3nnnn3C3CCCCC3)cc2)ccc1NCc1nnnn1C1CCCCC1 , is the recorded IC50 at 48 h below the cut-off of 40 µM?
Response line: criterion not met

Prompt line: Determine if CC(C)(C)n1nnnc1C(Nc1ccc([Se][Se]c2ccc(NC(c3ccco3)c3nnnn3C(C)(C)C)cc2)cc1)c1ccco1 (stereo unspecified) shows IC50 at 48 h strictly lower than 40 µM.
Response line: criterion met

Prompt line: Threshold test, IC50 at 48 h < 40 µM: O=c1[nH]cc(F)c(=O)[nH]1
Response line: criterion met

Prompt line: Does the reported IC50 at 48 h of the following compound sit strictly below 40 µM? Cc1ccc(C(Nc2ccc([Se][Se]c3ccc(NC(c4ccc(C)cc4)c4nnnn4C4CCCCC4)cc3)cc2)c2nnnn2C2CCCCC2)cc1 (stereo unspecified)
Response line: criterion not met

Prompt line: Here's an entry: CC(C)C(Nc1ccc([Se][Se]c2ccc(NC(c3nnnn3C(C)(C)C)C(C)C)cc2)cc1)c1nnnn1C(C)(C)C (stereo unspecified) . Is its IC50 at 48 h below 40 µM?
Response line: criterion not met

Prompt line: Strictly below 40 µM in IC50 at 48 h? COc1ccc(Cn2nnnc2C(Nc2ccc([Se][Se]c3ccc(NC(c4nnnn4Cc4ccc(OC)cc4OC)C(C)C)cc3)cc2)C(C)C)c(OC)c1 (stereo unspecified)
Response line: criterion not met

Prompt line: Hello, I'm reviewing records and need to know if IC50 at 48 h of COC(CC(OC)OC)Cn1nnnc1C(Nc1ccc([Se][Se]c2ccc(NC(c3nnnn3CC(CC(OC)OC)OC)C(C)C)cc2)cc1)C(C)C (stereo unspecified) is below 40 µM. Could you check?
Response line: criterion not met

Prompt line: # TODO verify IC50 at 48 h < 40 µM strictly for this compound: COc1ccc(Cn2nnnc2C(Nc2ccc([Se][Se]c3ccc(NC(c4ccc(C)cc4)c4nnnn4Cc4ccc(OC)cc4OC)cc3)cc2)c2ccc(C)cc2)c(OC)c1 (stereo unspecified)
Response line: criterion not met

New cases:
Prompt line: Take the compound CC(=O)N(c1ccc([Se]C2=CC(=O)c3ccccc3C2=O)cc1)C(C(=O)NC(C)(C)C)c1ccc(C)cc1 (stereo unspecified) and say whether its IC50 at 48 h is less than 40 µM.
Response line: criterion met

Prompt line: Is it true that IC50 at 48 h reported for COc1ccc(-n2nnnc2C(Nc2ccc([Se][Se]c3ccc(NC(c4nnnn4-c4ccc(OC)cc4)C(C)C)cc3)cc2)C(C)C)cc1 (stereo unspecified) is less than 40 µM?
Response line: criterion not met

----------
Assay: Pro-oxidant activity as bleomycin-Fe2+ induced calf thymus DNA damage measured as absorbance at 2 mM after 1 hr by thiobarbituric acid-based assay
Format: ADME
Set-up: unit not given here
Conditions: cattle, 2000 µM
ATTRIBUTE MEASURED: Activity

Use these answered entries as a reference point.
Prompt line: Please report the measured Activity for CC(C)C(Nc1ccc([Se][Se]c2ccc(NC(c3nnnn3Cc3ccccc3)C(C)C)cc2)cc1)c1nnnn1Cc1ccccc1 (configuration not stated)
Response line: 92

Prompt line: # return recorded Activity for input CC(C)(C)n1nnnc1C(Nc1ccc([Se][Se]c2ccc(NC(c3ccco3)c3nnnn3C(C)(C)C)cc2)cc1)c1ccco1 (configuration not stated)
Response line: 108

Prompt line: Give a short answer stating reported Activity for CC(C)C(Nc1ccc([Se][Se]c2ccc(NC(c3nnnn3C3CCCCC3)C(C)C)cc2)cc1)c1nnnn1C1CCCCC1 (configuration not stated) .
Response line: 99

Prompt line: Output measured Activity for this item: COc1ccc(Cn2nnnc2C(Nc2ccc([Se][Se]c3ccc(NC(c4ccco4)c4nnnn4Cc4ccc(OC)cc4OC)cc3)cc2)c2ccco2)c(OC)c1 (configuration not stated)
Response line: 81

Prompt line: Input c1cc([Se][Se]c2ccc(NCc3nnnn3C3CCCCC3)cc2)ccc1NCc1nnnn1C1CCCCC1 , output reported Activity.
Response line: 96

Prompt line: Tell me its Activity given COC(CC(OC)OC)Cn1nnnc1C(Nc1ccc([Se][Se]c2ccc(NC(c3nnnn3CC(CC(OC)OC)OC)C(C)C)cc2)cc1)C(C)C (configuration not stated) as the entry.
Response line: 94

Kindly consider the entry below.
Prompt line: Look up Activity of COc1ccc(Cn2nnnc2C(Nc2ccc([Se][Se]c3ccc(NC(c4nnnn4Cc4ccc(OC)cc4OC)C(C)C)cc3)cc2)C(C)C)c(OC)c1 (configuration not stated) and report it.
Response line: 81

----------
Test: Upregulation of caspase-8 expression in human HepG2 cells at IC50 after 48 hrs by ELISA
Assay type: functional, cell-based
Calls of active or inactive are those of the source. The calls are words filed in the database; no cut-off is given here.
ATTRIBUTE MEASURED: Activity

Prompt line: // Input: CC(C)C(Nc1ccc([Se][Se]c2ccc(NC(c3nnnn3Cc3ccccc3)C(C)C)cc2)cc1)c1nnnn1Cc1ccccc1 (centres undefined) . Output its Activity only.
Response line: Active

Prompt line: Give reported Activity value for CC(=O)N(c1ccc([Se]C2=CC(=O)c3ccccc3C2=O)cc1)C(C(=O)NC(C)(C)C)c1ccc(C)cc1 (centres undefined)
Response line: Active

Prompt line: Tell us which Activity value is on record for CC1=C([Se]c2ccc(NC(c3ccc(C)cc3)c3nnnn3C(C)(C)C)cc2)C(=O)c2ccccc2C1=O (centres undefined)
Response line: Active

Prompt line: Return reported Activity. Input compound: CC1=C([Se]c2ccc(NC(c3ccco3)c3nnnn3C(C)(C)C)cc2)C(=O)c2ccccc2C1=O (centres undefined)
Response line: Active

----------
Assay: Therapeutic index, ratio of IC50 for human WI38 cells to IC50 for human HepG2 cells
Format: cell-based
Settings: WI38 cells and HepG2 cells, read-out: Ratio IC50
The reader will find reported selectivity ratio values listed item by item below.
// return just the number, without any unit appended

Here's what some known entries look like.
Prompt line: Note selectivity ratio for the compound shown: CC1=C([Se]c2ccc(NC(c3ccco3)c3nnnn3C(C)(C)C)cc2)C(=O)c2ccccc2C1=O (stereo not given)
Response line: 0.6

Prompt line: Report selectivity ratio for c1coc(C(Nc2ccc([Se][Se]c3ccc(NC(c4ccco4)c4nnnn4C4CCCCC4)cc3)cc2)c2nnnn2C2CCCCC2)c1 (stereo not given)
Response line: 2

Further cases:
Prompt line: Check the records and state selectivity ratio for COc1ccc(Cn2nnnc2C(Nc2ccc([Se][Se]c3ccc(NC(c4nnnn4Cc4ccc(OC)cc4OC)C(C)C)cc3)cc2)C(C)C)c(OC)c1 (stereo not given)
Response line: 32

Prompt line: Report selectivity ratio, nothing else, for this compound: CC1=C([Se]c2ccc(NC(c3ccc(C)cc3)c3nnnn3C(C)(C)C)cc2)C(=O)c2ccccc2C1=O (stereo not given)
Response line: 0.8

Prompt line: Entry O=c1[nH]cc(F)c(=O)[nH]1 needs its selectivity ratio filled in; supply it.
Response line: 0.5

Prompt line: Check the records and state selectivity ratio for CC1=C([Se]c2ccc(NCc3nnnn3C(C)(C)C)cc2)C(=O)c2ccccc2C1=O
Response line: 1.5

----------
Test: Antioxidant activity assessed as DPPH radical scavenging activity at 1 uM after 30 mins in absence of light by spectrophotometric analysis
Type: functional
Reported Activity by item:
Enter your answer as a number in %; do not include the unit.

Solved cases (10 shown):
Prompt line: Quickly give me recorded Activity for COc1ccc(-n2nnnc2C(Nc2ccc([Se][Se]c3ccc(NC(c4nnnn4-c4ccc(OC)cc4)C(C)C)cc3)cc2)C(C)C)cc1 (stereo not given)
Response line: 30.5

Prompt line: Dear colleague, please send me the reported Activity for COc1ccc(Cn2nnnc2C(Nc2ccc([Se][Se]c3ccc(NC(c4ccc(C)cc4)c4nnnn4Cc4ccc(OC)cc4OC)cc3)cc2)c2ccc(C)cc2)c(OC)c1 (stereo not given) when you can.
Response line: 22.1

Prompt line: Consider the molecule CC(C)C(Nc1ccc([Se][Se]c2ccc(NC(c3nnnn3C(C)(C)C)C(C)C)cc2)cc1)c1nnnn1C(C)(C)C (stereo not given) . State its measured Activity.
Response line: 38.6

Prompt line: Entry COc1ccc(Cn2nnnc2C(Nc2ccc([Se][Se]c3ccc(NC(c4nnnn4Cc4ccc(OC)cc4OC)C(C)C)cc3)cc2)C(C)C)c(OC)c1 (stereo not given) needs its Activity filled in; supply it.
Response line: 31.8

Prompt line: Given the molecule COC(CC(OC)OC)Cn1nnnc1C(Nc1ccc([Se][Se]c2ccc(NC(c3nnnn3CC(CC(OC)OC)OC)C(C)C)cc2)cc1)C(C)C (stereo not given) , write its reported Activity.
Response line: 26.3

Prompt line: Provide Activity value for the following molecule: CC(C)C(Nc1ccc([Se][Se]c2ccc(NC(c3nnnn3C3CCCCC3)C(C)C)cc2)cc1)c1nnnn1C1CCCCC1 (stereo not given)
Response line: 22.9

Prompt line: State, in one line, measured Activity of CC1=C([Se]c2ccc(NC(c3ccc(C)cc3)c3nnnn3C(C)(C)C)cc2)C(=O)c2ccccc2C1=O (stereo not given)
Response line: 93

Prompt line: For the molecule O=C1O[C@H]([C@@H](O)CO)C(O)=C1O , give its measured Activity value.
Response line: 96.5

Prompt line: Answer with the recorded Activity for the molecule listed here: CC(C)(C)n1nnnc1CNc1ccc([Se][Se]c2ccc(NCc3nnnn3C(C)(C)C)cc2)cc1
Response line: 44.3

Prompt line: Output measured Activity for this item: CC1=C([Se]c2ccc(NCc3nnnn3C(C)(C)C)cc2)C(=O)c2ccccc2C1=O
Response line: 69

Others:
Prompt line: Query Activity for Cc1ccc(C(Nc2ccc([Se][Se]c3ccc(NC(c4ccc(C)cc4)c4nnnn4C4CCCCC4)cc3)cc2)c2nnnn2C2CCCCC2)cc1 (stereo not given)
Response line: 22.9

Prompt line: Report Activity, nothing else, for this molecule: c1coc(C(Nc2ccc([Se][Se]c3ccc(NC(c4ccco4)c4nnnn4C4CCCCC4)cc3)cc2)c2nnnn2C2CCCCC2)c1 (stereo not given)
Response line: 49.5

Prompt line: Answer with the recorded Activity of CC1=C([Se]c2ccc(NC(c3ccco3)c3nnnn3C(C)(C)C)cc2)C(=O)c2ccccc2C1=O (stereo not given) only.
Response line: 95.3

Prompt line: Item c1cc([Se][Se]c2ccc(NCc3nnnn3C3CCCCC3)cc2)ccc1NCc1nnnn1C1CCCCC1 : provide Activity
Response line: 19.4

Prompt line: State its Activity for this molecule: COc1ccc(Cn2nnnc2C(Nc2ccc([Se][Se]c3ccc(NC(c4ccco4)c4nnnn4Cc4ccc(OC)cc4OC)cc3)cc2)c2ccco2)c(OC)c1 (stereo not given)
Response line: 18.8

Reference for the values: ChEMBL document CHEMBL3865787
